For each record, write down the corresponding IC50.
# SYSTEM_UNDER_TEST: purified bovine brain PI 3-kinase (Bos taurus)
# Construct: PI 3-kinase was prepared from bovine brain; from tissue; host or cells: bovine brain
# EXPERIMENT_SUMMARY: Assay of purified PI 3-kinase activity (32P incorporation into phosphatidylinositol, TLC/scintillation)
# Format: biochemical
# TEST_CONDITIONS: IC50 (ng/mL), bovine brain purified PI 3-kinase; 10 min preincubation, 20 μM ATP, 3% DMSO
Express it in nM; write the number only.

Tell me the measured IC50 of COC[C@H]1OC(=O)c2coc3c2[C@@]1(C)C1=C(C3=O)[C@@H]2CCC(=O)[C@@]2(C)C[C@H]1OC(C)=O , please. 4.2

Tell me the measured IC50 of COC[C@H]1OC(=O)c2coc3c2[C@@]1(C)C1=CC[C@]2(C)C(=O)CC[C@H]2[C@@H]1C3=O [II, Δ9,11-dehydrodesacetoxywortmannin] , please. 54

* * *

# SYSTEM_UNDER_TEST: purified bovine brain PI 3-kinase (Bos taurus)
# Construct: PI 3-kinase was prepared from bovine brain; from tissue; host or cells: bovine brain
# EXPERIMENT_SUMMARY: Assay of purified PI 3-kinase activity (32P incorporation into phosphatidylinositol, TLC/scintillation)
# Assay type: biochemical
# TEST_CONDITIONS: bovine brain purified PI 3-kinase; value printed in parentheses beside ng/mL; read-out: IC50, molar value in parentheses
MEASURED_ATTRIBUTE: IC50
Answer format: number, then unit.

Tell me the measured IC50 of COC[C@H]1OC(=O)c2coc3c2[C@@]1(C)C1=C(C3=O)[C@@H]2CCC(=O)[C@@]2(C)CC1 , please. 0.0167 µM

* * *

# SYSTEM_UNDER_TEST: purified bovine brain PI 3-kinase (Bos taurus, UniProt P32871)
# Construct: PI 3-kinase was prepared from bovine brain; from tissue; host or cells: bovine brain
# Sequence (P32871 whole entry): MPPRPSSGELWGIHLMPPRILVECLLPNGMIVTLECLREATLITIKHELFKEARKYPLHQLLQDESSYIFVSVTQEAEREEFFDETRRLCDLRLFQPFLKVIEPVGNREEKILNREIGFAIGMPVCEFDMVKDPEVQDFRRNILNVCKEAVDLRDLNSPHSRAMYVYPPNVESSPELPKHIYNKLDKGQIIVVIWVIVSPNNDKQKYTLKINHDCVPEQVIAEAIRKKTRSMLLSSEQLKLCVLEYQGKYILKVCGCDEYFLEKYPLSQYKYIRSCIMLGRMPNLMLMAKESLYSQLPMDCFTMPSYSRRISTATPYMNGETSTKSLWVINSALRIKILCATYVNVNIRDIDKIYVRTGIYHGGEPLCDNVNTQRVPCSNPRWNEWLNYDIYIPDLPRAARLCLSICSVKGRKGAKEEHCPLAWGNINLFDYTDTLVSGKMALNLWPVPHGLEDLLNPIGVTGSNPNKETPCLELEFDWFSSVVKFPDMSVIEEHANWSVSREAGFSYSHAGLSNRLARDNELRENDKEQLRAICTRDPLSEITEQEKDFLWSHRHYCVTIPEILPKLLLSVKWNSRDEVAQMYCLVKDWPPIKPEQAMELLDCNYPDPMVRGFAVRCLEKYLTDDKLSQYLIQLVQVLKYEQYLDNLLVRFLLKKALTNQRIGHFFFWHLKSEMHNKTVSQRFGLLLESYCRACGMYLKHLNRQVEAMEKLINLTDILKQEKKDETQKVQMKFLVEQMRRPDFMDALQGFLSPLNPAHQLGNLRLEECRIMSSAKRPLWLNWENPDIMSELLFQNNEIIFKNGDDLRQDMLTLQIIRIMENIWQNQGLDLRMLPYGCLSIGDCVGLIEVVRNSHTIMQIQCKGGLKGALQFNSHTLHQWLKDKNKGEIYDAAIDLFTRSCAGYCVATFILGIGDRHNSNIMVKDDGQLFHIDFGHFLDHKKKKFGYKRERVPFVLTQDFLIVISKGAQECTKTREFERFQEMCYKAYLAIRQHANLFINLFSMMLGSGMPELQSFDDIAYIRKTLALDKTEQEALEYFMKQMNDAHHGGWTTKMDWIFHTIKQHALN
# Sequence (P23727 whole entry partner): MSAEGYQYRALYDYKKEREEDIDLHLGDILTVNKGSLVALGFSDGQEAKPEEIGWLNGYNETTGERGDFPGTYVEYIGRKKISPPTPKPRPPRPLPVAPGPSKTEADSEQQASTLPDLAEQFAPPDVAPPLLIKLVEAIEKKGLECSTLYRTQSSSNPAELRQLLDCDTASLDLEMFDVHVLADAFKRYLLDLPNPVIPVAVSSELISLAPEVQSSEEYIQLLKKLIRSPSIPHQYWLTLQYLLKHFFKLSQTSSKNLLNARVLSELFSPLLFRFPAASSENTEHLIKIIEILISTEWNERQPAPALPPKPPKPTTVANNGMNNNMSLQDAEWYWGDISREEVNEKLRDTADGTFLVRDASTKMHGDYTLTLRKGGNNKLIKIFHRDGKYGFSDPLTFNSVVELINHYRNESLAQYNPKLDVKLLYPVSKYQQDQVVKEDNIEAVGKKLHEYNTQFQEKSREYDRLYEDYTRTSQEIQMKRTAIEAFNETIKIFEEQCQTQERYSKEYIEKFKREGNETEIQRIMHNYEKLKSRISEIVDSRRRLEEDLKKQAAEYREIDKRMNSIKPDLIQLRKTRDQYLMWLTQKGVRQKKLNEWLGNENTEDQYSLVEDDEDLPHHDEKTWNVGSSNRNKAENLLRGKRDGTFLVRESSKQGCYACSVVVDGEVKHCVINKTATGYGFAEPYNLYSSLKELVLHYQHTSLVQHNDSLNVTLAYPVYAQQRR
# EXPERIMENT_SUMMARY: Assay of purified PI 3-kinase activity (32P incorporation into phosphatidylinositol, TLC/scintillation)
# Type: biochemical
# TEST_CONDITIONS: IC50, molar value in parentheses, bovine brain purified PI 3-kinase; value printed in parentheses beside ng/mL
# Experimental: In another, preferred, method, PI 3-kinase was prepared from bovine brain. Two bovine brains (wet weight about 900 g) were obtained from a local slaughterhouse within minutes of slaughter, packed on ice, and homogenized within one hour. […] PI 3-kinase activity was measured as previously described by Matter, W. F., et al., Biochemical and Biophysical Research Communications, 186:624-631 (1992).
For each record, write down the corresponding IC50.
Express it in µM; write the number only.

Tell me the measured IC50 of COC[C@H]1OC(=O)c2coc3c2[C@@]1(C)C1=CC[C@]2(C)C(=O)CC[C@H]2[C@@H]1C3=O [II, Δ9,11-dehydrodesacetoxywortmannin] , please. 0.059

Tell me the measured IC50 of COC[C@H]1OC(=O)c2coc3c2[C@@]1(C)C1=C(C3=O)[C@@H]2CCC(=O)[C@@]2(C)C[C@H]1OC(C)=O , please. 0.0042

Reference source: patent US5378725A
